tested on: OVCAR-3 ovarian; experiment: NCI tumour cell line growth inhibition, 48 h
Measured attribute: TGI (µM)

1. CC1CN1c1c(C(=O)/C=C/c2ccccc2)c(-c2ccccc2)nn(C)c1=O (stereo not given) = 40.8
2. COC(=O)c1nc(-c2ccccc2)oc1S(=O)(=O)n1nc(C)cc1N = 3.99
3. COc1cc(/C=C/[N+](=O)[O-])cc(Br)c1OC = 10.2
4. CCN1C(=O)N(CC)C2C1NN=c1s/c(=C\c3ccccc3Br)c(=O)n12 (stereo not given) = 0.0764
5. Cn1cc(-c2nonc2-c2cn(C)c3ccccc23)c2ccccc21 = 3.42

* * *

system: HCT-116 colon; assay: NCI tumour cell line growth inhibition, 48 h
Where a SMILES comes first, the peptide text is derived from it. [ ]: non-standard residue; d: D form. The star is where a group is joined. mTyr = N[CH](Cc1cccc(O)c1)C(=O)O; Cbz = O=C(OCc1ccccc1)*; OBn = c1ccc(CO*)cc1
Measured attribute: TGI

1. O=C1NC(=O)C(c2cccc(Cl)c2)=C1Nc1ccc(O)c(Cl)c1 = > 25 µM
2. FC(F)(F)c1ccc2nc(Sc3ccccn3)cnc2c1 = > 100 µM
3. COc1ccc(/C=N/NC(=O)Cn2c(-c3ccc(S(C)(=O)=O)cc3)nc3cc(Cl)ccc32)cc1 = > 50 µM
4. COc1ccc2c(c1)OC1=C(C(=O)OC1)C2c1cc(OC)c2c(c1)OCO2 (configuration not stated) = 7.16 µM
5. CSCCC(NC(=O)Cc1ccc(C(=O)c2ccccc2)cc1)C(=O)O (configuration not stated) = > 100 µM
6. COC(=O)C(Cc1cccc(O)c1)NC(=O)C(CC(=O)OCc1ccccc1)NC(=O)OCc1ccccc1 (configuration not stated) (Cbz-Asp(OBn)-[mTyr]-OMe; configuration not given here) = > 100 µM
7. N/N=C1\CC(=O)NC(=O)N1 = > 100 µM
8. C[CH2][Pb]([CH2]C)([CH2]C)[O]C(=O)c1ccc2ccccc2n1 = > 10 µM
9. Nc1nc(Cl)c(N)c(NCC2(CO)CC(CCCc3ccccc3)C2)n1 (configuration not stated) = > 100 µM
10. CCCCCCCCCCCCCP(=O)(O)NCC(N)=O = > 100 µM
11. CCC(c1c[nH]c2ccc(Br)cc12)c1c[nH]c2ccc(Br)cc12 = 15.1 µM
12. Cc1ccc(/C=C2\CCCC(CN3CCCCC3)C2=O)cc1 (configuration not stated) = 3.26 µM
13. CC(C)(C)c1ccc(C(=O)Nc2sc3c(c2C(N)=O)CCC(=O)C3)cc1 = 1.29 µM
14. CC(C)=C/C=C1/CS(=O)(=O)C=C1C = > 100 µM
15. CC(C)c1c2[nH]c3ccccc3c2c(C(C)C)c2[nH]c3ccccc3c12 = > 100 µM
16. Fc1ccccc1C1SCc2nc3cc4ccccc4cc3n21 (configuration not stated) = > 100 µM
17. CN1CCN(CC(O)COc2c(Br)c(Br)c(Br)c3c2OC(C)(C)C3)CC1 (configuration not stated) = > 100 µM
18. COC(=O)c1nc(-c2ccccc2)oc1S(=O)(=O)n1nc(C)cc1N = 17.6 µM
19. O=C(CSC1=NCCN1)Nc1ccccc1 = 59.6 µM
20. COC(=O)c1cnn2c1n[n+]([O-])c1ccccc12 = > 100 µM
21. Cc1nc(-c2ccc(N=Cc3ccc(N(CCOS(C)(=O)=O)CCOS(C)(=O)=O)cc3C)cc2)cs1 = > 100 µM
22. COc1ccc(N=C2C(=Nc3ccc(OC)cc3)N(c3ccccc3)C(=S)N2N=C=C2Sc3ccccc3N2C)cc1 = > 100 µM

* * *

Listed compounds paired with reported TGI
test system: SF-295 CNS; assay: NCI tumour cell line growth inhibition, 48 h
Measured attribute: TGI

1) Brc1ccc(-c2cn3ccncc3n2)cc1 = > 100 µM
2) C[C@H]1C=C2[C@@H]3CC(C)(C(=O)O)CC[C@]3(C)CC[C@]2(C)[C@]2(C)CC[C@H]3C(C)(C)[C@@H](OC(=O)c4cccc5c(=O)c6ccccc6[nH]c45)CC[C@]3(C)[C@@H]12 (stereo not given in full) = > 100 µM
3) CCC(c1c[nH]c2ccc(Br)cc12)c1c[nH]c2ccc(Br)cc12 = 18.8 µM
4) N#CN1CC[C@H](C(=O)Nc2ncc(-c3ccncc3)s2)C1 = > 38.9 µM
5) CCC1(O)C(=O)OCc2c1cc1n(c2=O)Cc2cc3cc(N)ccc3nc2-1 (stereo not given) = 0.36 µM
6) CSC(=S)N/N=C(\C)c1cccc(C)n1 = 24.8 µM
7) Cn1c2ccccc2n2c(=O)c3c(c(C#N)c12)CCCC3 = > 100 µM
8) CCOC(=O)CSc1nnc(C(Sc2nc(-c3ccccc3)c(-c3ccccc3)[nH]2)C(C)C)n1-c1ccccc1 (stereo not given) = > 10 µM
9) Cc1cc(NCCCCCCCNc2cc(C)nc3cc([N+](=O)[O-])ccc23)c2ccc([N+](=O)[O-])cc2n1 = 26.4 µM
10) COc1cc2nc(NCCCCCNC(=O)c3ccco3)nc(N)c2cc1OC = > 100 µM
11) COC(=O)c1cnn2c1n[n+]([O-])c1ccccc12 = > 100 µM
12) Brc1c(C#CCC2CCCCC2)ccc(C#CCC2CCCCC2)c1Br = > 100 µM
13) N#Cc1c(N)[nH]c2ccc(Sc3ccccc3)cc12 = 4.96 µM
14) CCO/C=C1\N=C(c2ccccc2Br)OC1=O = > 100 µM
15) CN(C)c1ccc(/C=C2\C=Cc3ccccc32)cc1 = > 100 µM
16) O=P1(Oc2ccccc2)C(c2ccccc2)C(c2ccccc2)=NN1c1ccccc1 (stereo not given) = 89.5 µM
17) COc1nc(N)c(N=CC(OC(C)=O)C(OC(C)=O)C(COC(C)=O)OC(C)=O)c(=O)n1C (stereo not given) = > 100 µM
18) C[C@@H]1O[C@@H](O[C@H]2CC[C@@]3(C)[C@H](CCC4[C@@H]3C(O)C[C@]3(C)[C@@H](c5ccc(=O)oc5)CC[C@]43O)C2)[C@H](O)[C@H](O)[C@H]1O (stereo not given in full) = 0.0291 µM
19) Cc1ccc(CC(C)N)cc1 (stereo not given) = > 100 µM
20) Cc1ccc(N=Nc2c(O)c(C(=O)Nc3ccccc3)cc3ccccc23)c([N+](=O)[O-])c1 = > 100 µM

* * *

system: UACC-62 melanoma; assay: NCI tumour cell line growth inhibition, 48 h
Listed compounds paired with reported TGI
Measured attribute: TGI

1. CSCCC(NC(=O)Cc1ccc(C(=O)c2ccccc2)cc1)C(=O)O (centres undefined) = > 100 µM
2. COC(=O)c1cnn2c1n[n+]([O-])c1ccccc12 = > 100 µM
3. CC(C)(C)CN1CCn2c(nc3c(N)nccc32)S1 = 88.5 µM
4. CNc1ccc(N)cc1C(=O)N1CCC[C@H]1CO = > 100 µM

* * *

Listed compounds paired with reported TGI
tested on: HL-60(TB) leukemia; experiment: NCI tumour cell line growth inhibition, 48 h
Measured attribute: TGI

1. OC(c1ccc(-c2ccccc2)cc1)C(F)(F)c1nc2ccccc2o1 (stereo not given) = > 74.1 µM
2. C=CCOC(=O)C1C2OC3(C(C(=O)OC)=C2C(=O)OC)c2ccccc2CCC13 (stereo not given) = > 10 µM
3. O=[N+]([O-])c1cc(S(=O)(=O)Oc2ccccc2)ccc1Cl = 6.84 µM
4. COc1cc2c(c(OC)c1OC)-c1ccc(SC)c(=O)cc1[C@@H](NC1OC(CO)C(O)C(O)C1O)CC2 (stereo not given in full) = 0.0666 µM
5. COc1cc2c(cc1OC)C1(c3ccc(Cl)cc3)ON=C(c3ccccc3)N1CS2 (stereo not given) = > 100 µM

* * *

tested on: SW-620 colon; assay: NCI tumour cell line growth inhibition, 48 h
Measured attribute: TGI

1. c1ccc(CSCCc2ccncc2)cc1 = > 100 µM
2. O=C1NC(=O)C(c2cccc(Cl)c2)=C1Nc1ccc(O)c(Cl)c1 = > 25 µM
3. CCN(Cc1ccc(Cl)s1)c1ccc(CO)c(Cl)c1 = > 55.2 µM
4. CCOC1=C2N=C(Cc3ccccc3F)N=C2C(=O)c2ccccc21 = > 100 µM
5. COc1ccc(OC)c(Cn2cc3c(c2)-c2oncc2CC3)c1 = > 100 µM
6. O=C(Nc1cccc(F)c1)c1cc2ccc(O)cc2oc1=Nc1ccccc1F = 45.4 µM
7. CCNC1=C(NC(=O)CC)C(=O)c2ccccc2C1=O = > 100 µM

* * *

tested on: U251 CNS; experiment: NCI tumour cell line growth inhibition, 48 h; in the data active = GI50 below about 0.43 µM; inactive = the rest
Outcome codes: yes (1) (active), no (0) (inactive)

1) COc1ccc(OC)c(C2SCC(=O)N2NC(=O)C(O)c2ccccc2)c1 (stereo not given) = no (0)
2) COc1ccc(C2[C@@H](Cl)C(=O)N2c2cc(OC)c(OC)c(OC)c2)cc1Cl (stereo not given in full) = yes (1)
3) COc1cc(/C=C/[N+](=O)[O-])cc(Br)c1OC = no (0)
4) CC(C)(C)CN1CCn2c(nc3c(N)nccc32)S1 = no (0)
5) C#CCOc1cccc(Nc2ncnc3c(NC(=O)CCl)cccc23)c1 = no (0)
6) COc1cc2c(c(OC)c1OC)-c1ccc(SC)c(=O)cc1[C@@H](NC1OC(CO)C(O)C(O)C1O)CC2 (stereo not given in full) = yes (1)
7) CCN1C(=O)N(CC)C2C1NN=c1s/c(=C\c3ccccc3Br)c(=O)n12 (stereo not given) = yes (1)
8) COC1O[C@@H]2C[C@H]3C(C)(C)CCC[C@]3(C)C3=CCCC1[C@@]32C (stereo not given in full) = no (0)
9) Cc1nc2ccccc2c(/C=C/c2ccc(Br)cc2)c1C(=O)/C=C/c1ccccc1 = no (0)
10) O=C(Nc1cccc(Nc2ncc(Br)c(NCCc3cnc[nH]3)n2)c1)N1CCCC1 = no (0)
